- EXPERIMENT SUMMARY: Rat pharmacokinetic (PK) assay
- Type: in vivo, Sprague-Dawley rat
- DETAILS: male, Sprague-Dawley, plasma; Rat po, dose 10 mg/kg (table)
READOUT: Tmax (h)
Number in h, nothing else.

Determine from records and report Tmax for O=C(O)c1ccc(C2(NC(=O)c3c(Cl)sc4ccn(Cc5ccc(C(F)(F)F)cc5)c34)CC2)cc1 [Example 1]
6.67

* * *

- EXPERIMENT SUMMARY: Liver microsomal stability, rat
- Assay type: in vitro ADME
- DETAILS: pooled rat liver microsomes, read-out: In vitro CLint
microsomal CLint: recorded values
Number in µL/min/mg, nothing else.

Observe how each entry below is paired with its result.
1. O=C(O)c1ccc(C2(NC(=O)c3c(F)sc4ccn(Cc5ccc(C(F)(F)F)cc5)c34)CC2)cc1 [Example 3]	8.4
2. O=C(O)c1ccc(C2(NC(=O)c3c(Cl)sc4ccn(Cc5ccc(C(F)(F)F)cc5)c34)CC2)cc1 [Example 1]	13.4

Read the next record carefully.
Determine from records and report microsomal CLint for COc1sc2ccn(Cc3ccc(C(F)(F)F)cc3)c2c1C(=O)NC1(c2ccc(C(=O)O)cc2)CC1 [Example 4]
11.1

* * *

- EXPERIMENT SUMMARY: Rat pharmacokinetic (PK) assay
- Type: in vivo, Sprague-Dawley rat
- DETAILS: male, Sprague-Dawley, plasma; Rat po, dose 10 mg/kg (table)
READOUT: Cmax (ng/mL)
Number in ng/mL, nothing else.

Determine from records and report Cmax for `O=C(O)c1ccc(C2(NC(=O)c3c(Cl)sc4ccn(Cc5ccc(C(F)(F)F)cc5)c34)CC2)cc1`
1830

* * *

- EXPERIMENT SUMMARY: Liver microsomal stability, rat
- Assay type: in vitro ADME
- DETAILS: pooled rat liver microsomes, read-out: In vitro T1/2
READOUT: half-life (h)
Number in h, nothing else.

1) O=C(O)c1ccc(C2(NC(=O)c3c(Cl)sc4ccn(Cc5ccc(C(F)(F)F)cc5)c34)CC2)cc1	1.73
2) O=C(O)c1ccc(C2(NC(=O)c3c(F)sc4ccn(Cc5ccc(C(F)(F)F)cc5)c34)CC2)cc1	2.75

Determine from records and report half-life for `COc1sc2ccn(Cc3ccc(C(F)(F)F)cc3)c2c1C(=O)NC1(c2ccc(C(=O)O)cc2)CC1`
2.08

* * *

half-life: recorded values
- EXPERIMENT SUMMARY: Liver microsomal stability, human
- Assay type: in vitro ADME
- DETAILS: pooled human liver microsomes, read-out: In vitro T1/2
Number in h, nothing else.

Observe how each entry below is paired with its result.
1. O=C(O)c1ccc(C2(NC(=O)c3c(Cl)sc4ccn(Cc5ccc(C(F)(F)F)cc5)c34)CC2)cc1 [Example 1]	2.03
2. O=C(O)c1ccc(C2(NC(=O)c3c(F)sc4ccn(Cc5ccc(C(F)(F)F)cc5)c34)CC2)cc1 [Example 3]	5.73

Determine from records and report half-life for COc1sc2ccn(Cc3ccc(C(F)(F)F)cc3)c2c1C(=O)NC1(c2ccc(C(=O)O)cc2)CC1 [Example 4]
7.13

* * *

- EXPERIMENT SUMMARY: Rat pharmacokinetic (PK) assay
- Format: in vivo, Sprague-Dawley rat
- DETAILS: male, Sprague-Dawley, plasma; Rat po, dose 10 mg/kg (table)
READOUT: AUC(0-inf)
Include the unit after the number when you answer.

Determine from records and report AUC(0-inf) for `O=C(O)c1ccc(C2(NC(=O)c3c(Cl)sc4ccn(Cc5ccc(C(F)(F)F)cc5)c34)CC2)cc1`
26700 ng·h/mL
